Hey, just so you know, these numbers are from patent EP4534554A1.

target: MAGE-A1 Dextramer (human); experiment: KD-SPR estimated from Dextramer staining MFI by the linear formula of Figure 6; not measured by SPR
Listed binders paired with reported Kd

Ask | Fill blank: measured Kd of the binder A1A2-M01-616 (TCR, V domains shown) Valpha: GEDVEQSLFLSVREGDSSVINCTYTDSSQTYLYWYKQEPGAGLQLLTYIFAFMQMKQDQRLTVLLNKKDKHLSLRIADTQTGDSAIYFCAGSGGGTDKLIFGTGTRLQVFP Vbeta: GAVVSQHPSWVICKSGTSVKIECRSLDFEATTMFWYRQFPKQSLMLMATTDYGSKATYEQGVEKDKFLINHASLTLSTLTVTSAHPEDSSFYICSAREPGQGPWEQYFGPGTRLTVT is ____.
Reply | 0.0186 nM

Ask | And the next one, A1A2-M01-622 (TCR, V domains shown) Valpha: GEDVEQSLFLSVREGDSSVINCTYTDSSSTYLYWYKQEPGAGLQLLTYIFAFESMKQDQRLTVLLNKKDKHLSLRIADTQTGDSAIYFCAGSGGGTDKLIFGTGTRLQVFP Vbeta: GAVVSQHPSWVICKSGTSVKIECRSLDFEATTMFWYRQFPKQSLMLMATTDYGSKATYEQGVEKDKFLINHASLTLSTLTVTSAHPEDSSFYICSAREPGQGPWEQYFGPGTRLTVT ?
Reply | 0.028 nM

Ask | And the next one, A1A2-M01-620 (TCR, V domains shown) Valpha: GEDVEQSLFLSVREGDSSVINCTYTDSSQTYLYWYKQEPGAGLQLLTYIFSNMDMKQDQRLTVLLNKKDKHLSLRIADTQTGDSAIYFCAGSGGGTDKLIFGTGTRLQVFP Vbeta: GAVVSQHPSWVICKSGTSVKIECRSLDFEATTMFWYRQFPKQSLMLMATTDYGSKATYEQGVEKDKFLINHASLTLSTLTVTSAHPEDSSFYICSAREPGQAWSDQYFGPGTRLTVT ?
Reply | 0.524 nM
